Measured IC50 values are reported for all entries that follow.
SYSTEM_NAME: TrkB (Homo sapiens, UniProt Q16620)
Construct: The kinase domain of the human TrkB receptor (amino acids 526-838); His
Sequence (Q16620 510-822): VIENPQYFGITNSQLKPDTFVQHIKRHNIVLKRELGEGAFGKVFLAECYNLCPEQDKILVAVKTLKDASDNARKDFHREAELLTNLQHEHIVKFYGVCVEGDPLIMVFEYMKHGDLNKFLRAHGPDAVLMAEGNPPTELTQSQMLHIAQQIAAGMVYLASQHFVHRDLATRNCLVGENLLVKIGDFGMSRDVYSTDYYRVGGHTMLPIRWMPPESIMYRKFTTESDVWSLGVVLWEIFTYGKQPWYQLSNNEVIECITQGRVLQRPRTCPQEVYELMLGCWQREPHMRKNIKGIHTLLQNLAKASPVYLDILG
ASSAY_NOTES: TrkB tyrosine kinase inhibition, recombinant enzyme, polyGluTyr phosphorylation (33P-ATP filter assay)
RECORDED_CONDITIONS: kinase domain of human TrkB (amino acids 526-838), His-fusion; 0.1 mg/ml PGT, 30 uM ATP, 1 hour at 30° C.
Procedure: The ability of compounds of the invention to inhibit tyrosine kinase activity of TrkB may be measured using a recombinant enzyme in an assay that measures the ability of compounds to inhibit the phosphorylation of the exogenous substrate, polyGluTyr (PGT, 4:1). […] Microscint-20 is then added to the dried filter plate and the captured ^33P-phosphorylated PGT is quantitated on a microscintillation plate counter (TopCount·NXT™).

- ITEM_SMILES: "CC(C)c1cc(C(=O)c2cccc(NC(=O)Nc3ccc(OCc4ccccc4)cc3)c2)c2c(N)ncnn12"
  CENSORING_OPERATOR: "="
  IC50, nM: 1
- ITEM_SMILES: "CN(C)CCCc1cc(C(=O)c2cccc(NC(=O)Nc3ccc(Cl)cc3Cl)c2)c2c(N)ncnn12"
  CENSORING_OPERATOR: "="
  IC50, nM: 1
- ITEM_SMILES: "CC(C)c1cc(C(=O)c2cccc(NC(=O)Nc3ccncc3)c2)c2c(N)ncnn12"
  CENSORING_OPERATOR: "="
  IC50, nM: 15
- ITEM_SMILES: "CC(C)c1cc(C(=O)c2cccc(NC(=O)Nc3ccc(Cl)cc3Cl)c2)c2c(N)ncnn12"
  CENSORING_OPERATOR: "="
  IC50, nM: 1
- ITEM_SMILES: "CC(C)c1cc(C(=O)c2cccc(NC(=O)NCCCc3ccccc3)c2)c2c(N)ncnn12"
  CENSORING_OPERATOR: "="
  IC50, nM: 8
- ITEM_SMILES: "CC(C)c1cc(C(=O)c2cccc(NC(=O)Nc3ccccc3)c2)c2c(N)ncnn12"
  CENSORING_OPERATOR: "<"
  IC50, nM: 1
- ITEM_SMILES: "CC(C)c1cc(C(=O)c2cccc(NC(=O)NCC3CCCCC3)c2)c2c(N)ncnn12"
  CENSORING_OPERATOR: "="
  IC50, nM: 36
- ITEM_SMILES: "CC(C)c1cc(C(=O)c2cccc(NC(=O)Nc3ccc4ccccc4c3)c2)c2c(N)ncnn12"
  CENSORING_OPERATOR: "="
  IC50, nM: 1

----------
Measured IC50 values are reported for all entries that follow.
SYSTEM_NAME: TrkA (Homo sapiens)
Construct: The kinase domain of the human TrkA receptor is expressed in Sf9 insect cells as a histidine (His)-fusion protein; His
Sequence (P04629 510-781 limits assumed): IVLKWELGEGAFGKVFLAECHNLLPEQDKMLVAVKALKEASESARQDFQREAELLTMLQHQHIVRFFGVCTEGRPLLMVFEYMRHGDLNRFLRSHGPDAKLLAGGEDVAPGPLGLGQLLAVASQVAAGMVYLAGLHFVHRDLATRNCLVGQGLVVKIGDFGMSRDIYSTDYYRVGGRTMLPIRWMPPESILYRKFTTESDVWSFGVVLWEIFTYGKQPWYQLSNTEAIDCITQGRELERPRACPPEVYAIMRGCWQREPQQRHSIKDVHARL
ASSAY_NOTES: TrkA tyrosine kinase inhibition, recombinant enzyme, polyGluTyr phosphorylation (33P-ATP filter assay)
RECORDED_CONDITIONS: kinase domain of human TrkA, His-fusion; 0.1 mg/ml PGT, 30 uM ATP, 1 hour at 30° C.

- MOLECULE: "CC(C)c1cc(C(=O)c2cccc(NC(=O)NCCCc3ccccc3)c2)c2c(N)ncnn12 [Example 61]"
  CENSORING_OPERATOR: "="
  IC50, nM: 21
- MOLECULE: "CC(C)c1cc(C(=O)c2cccc(NC(=O)Nc3ccc4ccccc4c3)c2)c2c(N)ncnn12 [Example 46]"
  CENSORING_OPERATOR: "<"
  IC50, nM: 1
- MOLECULE: "CC(C)c1cc(C(=O)c2cccc(NC(=O)Nc3ccccc3)c2)c2c(N)ncnn12 [Example 9]"
  CENSORING_OPERATOR: "="
  IC50, nM: 2
- MOLECULE: "CC(C)c1cc(C(=O)c2cccc(NC(=O)NCC3CCCCC3)c2)c2c(N)ncnn12 [Example 37]"
  CENSORING_OPERATOR: "="
  IC50, nM: 17
- MOLECULE: "CC(C)c1cc(C(=O)c2cccc(NC(=O)Nc3ccncc3)c2)c2c(N)ncnn12 [Example 63]"
  CENSORING_OPERATOR: "="
  IC50, nM: 9
- MOLECULE: "CN(C)CCCc1cc(C(=O)c2cccc(NC(=O)Nc3ccc(Cl)cc3Cl)c2)c2c(N)ncnn12 [Example 67]"
  CENSORING_OPERATOR: "="
  IC50, nM: 3
- MOLECULE: "CC(C)c1cc(C(=O)c2cccc(NC(=O)Nc3ccc(OCc4ccccc4)cc3)c2)c2c(N)ncnn12 [Example 33]"
  CENSORING_OPERATOR: "="
  IC50, nM: 2
